Target: T1, ANTIBODY EXPRESSION CONTROL
T1 construct: also called mouse anti-canine antibody (capture reagent of the expression control ELISA)
Experiment: SPR Biacore, expression control
Each entry below carries its recorded pKd.
# pKd = -log10(concentration in molar units)

Reference set, count: 2
{"columns": ["binder", "pKd"],
 "data": [
  ["Mu_10F07_VL (SEQ ID NO: 41)_T97A (antibody, V domains shown) VH: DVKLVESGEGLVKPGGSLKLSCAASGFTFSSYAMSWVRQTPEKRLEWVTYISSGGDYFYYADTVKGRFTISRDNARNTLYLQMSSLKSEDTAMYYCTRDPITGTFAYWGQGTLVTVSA VL: DIQMTQTTSSLSASLGDRVTISCRASQDITNYLNWYQQKPDGTVKLLIYYTSTLHSGVPSRFSGSGSGTDFSLTISNLEQEDIATYFCQQGHMLPWAFGGGTKLEIKR", 9.09],
  ["Mu_09E09_VH (SEQ ID NO: 35)_Y57A (antibody, V domains shown) VH: DVKLVESGEGLVKPGGSLKLSCAASGFTFSSYAMSWVRQTPEKRLEWVAYISSGGDAIYYADTVKGRFTISRDNARNTLYLQMSSLKSEDTAMYYCTRDPITGTFAYWGQGTLVTVSA VL: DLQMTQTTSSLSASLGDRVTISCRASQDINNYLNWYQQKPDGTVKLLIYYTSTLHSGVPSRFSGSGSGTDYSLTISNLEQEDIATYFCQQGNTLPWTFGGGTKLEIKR", 9.68]
]}

Which measured pKd value corresponds to Mu_19F07_VL (SEQ ID NO: 49)_L50A (antibody, V domains shown) VH: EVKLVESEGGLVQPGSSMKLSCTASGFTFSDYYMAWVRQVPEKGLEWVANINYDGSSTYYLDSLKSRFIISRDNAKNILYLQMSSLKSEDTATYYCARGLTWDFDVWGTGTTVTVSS VL: DIVMTQSHKFMSPSVGDRVSITCKASQDVDTAVAWYQQKPGQSPKLLIYAASTRHTGVPDRFTGSGSGTDFTLTISNVQSEDLADYFCQQYSRFPLTFGAGTKLELKR ?
9.79
